Test system: NCI-H23 lung
protocol: NCI-60 one-dose screen, 48 h (100 = growth as untreated, 0 = no growth, -100 = all killed)
test.settings: 10 µM unless noted
About 83,000 compounds went through this panel and 20% of them were active in at least one assay; those are over-represented in the sample as a whole.
Label rule, in plain words: growth of 90% and up is 1, under 90% is 0.

Decide: growth of O=C1CCC/C=C\C[C@H]2C=CC(=O)/C2=C/C[C@H](C/C=C\CC(F)(F)F)O1 >= 90%? 0

Now try CC(C)CCN(CCCNc1c2c(nc3ccccc13)CCCC2)CCC(C)C . 0

Another: COc1cc(OC)c(C(=O)/C=C/c2cccc(C#N)c2)c(OC)c1 0

Next record, please: CCC(=O)Oc1cc(/C=C/C(=O)O[C@H]2C[C@H]3CN4CCc5c([nH]c6cc(OC)ccc56)[C@@H]4C[C@@H]3[C@@H](C(=O)OC)[C@@H]2OC)ccc1OC 0

Do the same for O=C(CCl)NCCNc1nccc(Nc2ccc(S(=O)(=O)Nc3ccccn3)cc2)n1 please 0

Then Nc1nc(-c2cc3ccccc3o2)cc(=O)c(=O)[nH]1 ? 1

Now the compound COc1cc(/C=C2\C=C(c3ccc(F)cc3)N(Cc3ccccc3)C2=O)cc(OC)c1OC 0

Check C/C1=C\CCC2(C)OC2CC2CCC(C)(O)C(CC1)C2(C)C (stereo unspecified) too. 1

CCC(c1cccc(Br)c1)C(C(=O)O)c1ccc(OC)cc1 (stereo unspecified) ? 1

Please do the same for NC(=O)NNC(=O)c1ccccc1 as well. 1

// same read-out, input: COC(=O)CC/C(C)=N\Nc1ccc([N+](=O)[O-])cc1 1

Please answer likewise for CC(=O)Nc1ccc(S(=O)(=O)NC(CCC(=O)Nc2ccc(Cl)cc2)C(=O)O)cc1 (stereo unspecified) 1

Okay, and O=S(=O)(NCCNc1cc(-c2cn(-c3ccccc3)nc2-c2ccccc2)ccn1)c1ccc(F)cc1 ? 0

Same lookup for CN(C)c1ccc(-c2ccc(-c3ccc(C(=N)N)cn3)o2)cc1 , please. 0

CC1=C(C#N)C(C)(C)C(C#N)=C(C)N1 ? 1
